# Test details: chemical genetic growth profiling, strain panel (AID 1159580);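 note: tested at 20 µM; growth read once vehicle control cultures reached saturation at 30 °C; 1 = growth at the plate median or of vehicle wells; lower values mean less growth of the strain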
# Setup conditions: S. cerevisiae deletion strains, growth OD, locus YER016W, strain bim1, stronger effect = lower value
About 2,000 (36%) of roughly 5,500 compounds were called active. About 18% were inconclusive and are not listed. This is one part of the list.
// values below are reported normalized growth
Form field (numeric): enter value without unit.

Observe how each entry below is paired with its result.
>>> readout_value("NC(N)=NC(N)=Nc1ccccc1")
0.999
>>> readout_value("O=C(CCBr)N1CCN(C(=O)CCBr)CC1")
1.02
>>> readout_value("CC(=O)OC1CCC2(C)C3CC(=O)C4(C)C(CC5OC6(CCC(C)CO6)[C@@H](C)C54)C3CC[C@H]2C1 (some centres not stated)")
0.96
>>> readout_value("CCCCCCCCCCCCCCCCCCOCC(O)CO (configuration not stated)")
0.994
>>> readout_value("NC(=O)NO")
1.01
>>> readout_value("C1CCC(C(CC2CCCCN2)C2CCCCC2)CC1 (configuration not stated)")
0.972
>>> readout_value("C#CC1(O)CCC2C3CCC4=CC(=O)CCC4(C)C3CCC21C (configuration not stated)")
0.996
>>> readout_value("CC(=O)OCC1=C(C(=O)O)N2C(=O)[C@@H](NC(=O)CCCC(N)C(=O)O)C2SC1 (some centres not stated)")
0.999
>>> readout_value("CN[C@@H]1[C@@H](O[C@H]2O[C@H](CO)[C@@H](N)[C@H](O)[C@H]2O)O[C@H]2C[C@@H](N)[C@H](O[C@H]3[C@H](O)[C@@H](O)[C@H](N)C[C@@H]3N)O[C@@H]2[C@@H]1O")
1.01
>>> readout_value("CCOc1ccc(C(=O)c2ccc(OC)c(O)c2O)cc1")
1.01

Ask: Any idea what its normalized growth is? The molecule is CO[C@H]1C[C@H](O[C@H]2[C@H](C)[C@@H](OC3O[C@H](C)C[C@H](N(C)C)[C@H]3OC(C)=O)[C@@H](C)C[C@]3(CO3)C(=O)[C@H](C)[C@@H](OC(C)=O)[C@@H](C)[C@@H](C)OC(=O)[C@@H]2C)O[C@@H](C)[C@@H]1OC(C)=O (some centres not stated)
Reply: 0.997

Ask: Quick one: normalized growth for COc1cc(O)cc(OC)c1OC ?
Reply: 0.995

Ask: Which normalized growth reading was recorded for the molecule O=c1oc2c(O)c(O)cc3c(=O)oc4c(O)c(O)cc1c4c23 ?
Reply: 0.818

---

# Test details: chemical genetic growth profiling, strain panel (AID 1159580);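 note: tested at 20 µM; growth read once vehicle control cultures reached saturation at 30 °C; 1 = growth at the plate median or of vehicle wells; lower values mean less growth of the strain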
# Setup conditions: S. cerevisiae deletion strains, growth OD, locus YDR137W, strain rgp1, stronger effect = lower value
Among all 5,500 compounds or so, about 2,000 (36%) were called active. About 18% were inconclusive and are not listed. The list shows a part of the results. Where a SMILES comes first, the peptide text is derived from it. Side-chain parts run from the residue outwards. [ ]: non-standard residue; d: D form. The star is where a group is joined. X1 = CCC(C)C(N)C1=NC(C(=O)*)CS1; Orn = NCCC[CH](N)C(=O)O
Reported normalized growth by item:
Reply: number alone, nothing else.

Check out these entries, answers already filled in.
>>> readout_value("CC(C)CC1NC(=O)C(CCCN)NC(=O)C(C(C)C)NC(=O)C2CCCN2C(=O)C(Cc2ccccc2)NC(=O)C(CC(C)C)NC(=O)C(CCCN)NC(=O)C(C(C)C)NC(=O)C2CCCN2C(=O)C(Cc2ccccc2)NC1=O (stereo not given) (cyclo(FPV[Orn]LFPV[Orn]L); configuration not given here)")
0.307
>>> readout_value("CN(C)C(=N)N=C(N)N")
1.05
>>> readout_value("C#C[C@]1(O)CCC2C3CCC4=Cc5oncc5C[C@]4(C)C3CC[C@@]21C (stereo not given in full)")
0.859
>>> readout_value("CN1C(=O)CCS(=O)(=O)C1c1ccc(Cl)cc1 (stereo not given)")
0.993
>>> readout_value("OCc1c[nH]c2ccccc12")
0.741
>>> readout_value("COc1ccc([C@H]2COc3c(ccc(O)c3OC)C2)c(OC)c1O")
0.828

Ask: Bench note: what normalized growth did CC(=O)N[C@@H](Cc1c[nH]c2ccccc12)C(=O)O show?
Reply: 0.968

Ask: Quick one: normalized growth of CC(=O)OC[C@H]1O[C@@H](Oc2cc(OC(C)=O)c3c(=O)cc(-c4ccc(OC(C)=O)cc4)oc3c2)[C@H](OC(C)=O)[C@@H](OC(C)=O)[C@@H]1OC(C)=O ?
Reply: 1.09

Ask: Form field: reported normalized growth of NC1C[C@H]1c1ccccc1 (stereo not given in full)
Reply: 0.986

Ask: Endpoint output: normalized growth of CC1(C)C=Cc2cc3ccc(=O)oc3cc2O1 . Value?
Reply: 0.849

Ask: Query: normalized growth; subject: COC(=O)[C@]1(C)CC[C@]2(C)CC[C@]3(C)C4=CC=C5C(=CC(=O)C(O)=C5C)[C@]4(C)CC[C@@]3(C)[C@@H]2C1
Reply: 0.693

Ask: Which normalized growth value is on record for Cc1cc(C(C)(C)C)cc(C)c1CC1=NCCN1 ?
Reply: 0.994

Ask: Looking for the measured normalized growth of CCC(C)C(N)C1=NC(C(=O)NC(CC(C)C)C(=O)NC(CCC(=O)O)C(=O)NC(C(=O)NCCCCC2NC(=O)C(CC(N)=O)NC(=O)C(CC(=O)O)NC(=O)C(Cc3cnc[nH]3)NC(=O)C(Cc3ccccc3)NC(=O)C(C(C)CC)NC(=O)C(CCCN)NC2=O)C(C)CC)CS1 (stereo not drawn) (cyclo(DNK([Ile-Glu-Leu-X1])[Orn]IFH); configuration not given here) , can you help?
Reply: 0.992

Ask: Any idea what normalized growth was measured for CCN(CC)CCNC(=O)c1cc(Cl)c(N)cc1OC ?
Reply: 0.967

These entries and their values trace back to PubChem BioAssay AID1159580.
